The reported measurements were obtained from patent US7713994B2.

Target: cyclin D1/cdk 4 enzyme (Homo sapiens, UniProt P11802)
Construct: made in house; host or cells: Sf9 insect cells, recombinant baculovirus
Sequence (P11802 whole entry, species assumed): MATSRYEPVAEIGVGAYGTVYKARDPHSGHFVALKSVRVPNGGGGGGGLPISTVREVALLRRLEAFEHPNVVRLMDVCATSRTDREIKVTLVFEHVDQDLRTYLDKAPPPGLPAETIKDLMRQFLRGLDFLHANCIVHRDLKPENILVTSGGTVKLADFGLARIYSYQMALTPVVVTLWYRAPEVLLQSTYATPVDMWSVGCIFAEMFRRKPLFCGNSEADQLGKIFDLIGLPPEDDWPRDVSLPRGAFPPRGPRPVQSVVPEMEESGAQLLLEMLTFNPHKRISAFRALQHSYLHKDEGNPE
Sequence (P24385 whole entry partner, species assumed): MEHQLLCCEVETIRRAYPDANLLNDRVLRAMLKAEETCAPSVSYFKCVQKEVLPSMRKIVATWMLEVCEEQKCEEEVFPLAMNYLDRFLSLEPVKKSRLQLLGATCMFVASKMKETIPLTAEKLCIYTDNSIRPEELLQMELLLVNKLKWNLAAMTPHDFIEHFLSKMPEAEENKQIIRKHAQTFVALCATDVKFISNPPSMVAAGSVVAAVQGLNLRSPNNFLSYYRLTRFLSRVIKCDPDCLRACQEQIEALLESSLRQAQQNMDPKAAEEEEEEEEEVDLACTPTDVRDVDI
Assay: CDK4 ELISA kinase assay (phospho-Rb ser 795 detection)
Format: biochemical
Details: In Vitro Enzyme Assays, 200 μM ATP, read-out: CDK4 IC50
Each item that follows carries a reported log10 of IC50.
Annotation: log10 of IC50, nM basis.

Here's what some known entries look like.
> print(dat)
                                   compound                               test.system  assay.result
1  COc1cc2c(cc1OC)/C(=C/Nc1ccc(N3CCN(C)CC3)cc1)C(=O)NC2=O [Example 37]  cyclin D1/cdk 4 enzyme (Homo sapiens, UniProt P11802)          4.17
2  O=C1NC(=O)c2ccccc2/C1=C/Nc1ccc(CN2CCOCC2)cc1 [Example 19]  cyclin D1/cdk 4 enzyme (Homo sapiens, UniProt P11802)          4.03
3  COc1ccc(-c2ccc3c(c2)/C(=C/Nc2ccc(CN4CCCC4C)cc2)C(=O)NC3=O)cc1 (stereo not shown) [Example 358]  cyclin D1/cdk 4 enzyme (Homo sapiens, UniProt P11802)          2.49
4  CC(=O)Nc1ccc(CN/C=C2\C(=O)NC(=O)c3ccc(I)cc32)cc1OC(C)=O [Example 146]  cyclin D1/cdk 4 enzyme (Homo sapiens, UniProt P11802)          2.00
5  Nc1cnc(CN/C=C2\C(=O)NC(=O)c3ccc(I)cc32)cc1O [Example 424]  cyclin D1/cdk 4 enzyme (Homo sapiens, UniProt P11802)          1.78

Which log10 of IC50 is listed for CN(C)NC(=O)Cc1ccc(N/C=C2\C(=O)NC(=O)c3ccc(Br)cc32)cc1 [Example 283] ?
4.00

Value lookup for log10 of IC50; key = C=CCOc1ccc(CN/C=C2\C(=O)NC(=O)c3ccc(Br)cc32)cc1O [Example 149]
2.52

Form field: reported log10 of IC50 of COCCOc1ccc(CN/C=C2\C(=O)NC(=O)c3ccc(Br)cc32)cc1O [Example 158]
1.60

Any idea what its log10 of IC50 is? The compound is CN(C)CCCN(C)c1ccc(N/C=C2\C(=O)NC(=O)c3ccc(Br)cc32)cc1 [Example 275]
4.16

// returns reported log10 of IC50 for input O=C1NC(=O)c2ccc(-c3ccsc3)cc2/C1=C/NCc1ccc(OC(F)F)c(O)c1 [Example 200]
0.95
